assay_summary: In-vivo PK of GGA oral formulations in rat
study_conditions: plasma, GGA in 5% Gum Arabic+3% Hydroxypropyl Cellulose (Mn=10,262) aqueous suspension
assay_endpoint: Tmax (h)

- CC(=O)CC/C=C(\C)CC/C=C(\C)CC/C=C(\C)CCC=C(C)C: 13.3

---

System: RhoA
assay_summary: Active RhoA to total RhoA in Neuro2A cells (G-LISA, ELISA)
Format: cell-based, mouse
study_conditions: 48 hrs treatment, ratio of active RhoA to total RhoA as percentage of DMSO treatments, concentration not given
assay_endpoint: % Relative RhoGTPase Activity

- C=CCNC(=O)OC/C=C(\C)CC/C=C(\C)CCC=C(C)C [Compound 8j, Allyl 2E, 6E-farnesyl carbamate]: 105.6%
- CC(C)=CCC/C(C)=C/CC/C(C)=C/CC/C(C)=C/COC(=O)Nc1ccc2ccccc2c1: 86.9%
- CCNC(=S)OC/C=C(\C)CC/C=C(\C)CC/C=C(\C)CCC=C(C)C [Compound 10b]: 86.2%
- CC(C)=CCC/C(C)=C/CC/C(C)=C/COC(=O)Nc1ccccc1 [Compound 8o, Phenyl 2E, 6E-farnesyl carbamate]: 82.1%
- CCOC(=O)C(C/C=C(\C)CC/C=C(\C)CC/C=C(\C)CC/C=C(\C)CCC=C(C)C)C(C)=O (stereo not shown): 93.2%
- CCC(C)NC(=O)OC/C=C(\C)CC/C=C(\C)CCC=C(C)C (stereo not shown) [Compound 8g, Sec-Butyl 2E, 6E-farnesyl carbamate]: 111.3%
- CC(C)=CCC/C(C)=C/CC/C(C)=C/CC/C(C)=C/C1=N[C@H](C(C)C)C(=O)O1 [Compound 37a]: 106.8%
- CC(C)=CCC/C(C)=C/CC/C(C)=C/CC/C(C)=C/COC(=O)Nc1cc(Cl)c(Cl)c(Cl)c1: 94.4%
- CNC(=S)OC/C=C(\C)CC/C=C(\C)CCC=C(C)C: 102.7%
- COC(=O)[C@@H](NC(=O)OC(C)CC/C=C(\C)CC/C=C(\C)CCC=C(C)C)C(C)C (stereo partly shown) [Compound 20j]: 85.9%
- CCOc1cc(OCC)cc(C(=O)OC/C=C(\C)CC/C=C(\C)CC/C=C(\C)CCC=C(C)C)c1: 105.0%
- CC(C)=CCC/C(C)=C/CC/C(C)=C/CC/C(C)=C/C1=N[C@@H](C)CO1 [Compound 27b]: 89.0%
- CC(C)=CCC/C(C)=C/CC/C(C)=C/CC/C(C)=C/c1nnc(-c2ccc(C)cc2)o1 [Compound 29b]: 96.1%
- COc1ccc(NC(=O)OC/C=C(\C)CC/C=C(\C)CC/C=C(\C)CCC=C(C)C)c(OC)c1: 94.4%
- CC(C)=CCC/C(C)=C/CC/C(C)=C/CC/C(C)=C/COC(=O)Nc1ccc(C(F)(F)F)cc1: 83.5%
- CC(C)=CCC/C(C)=C/CC/C(C)=C/CC/C(C)=C/CCC1(C)OCCO1: 85.1%

The reported numbers originate from patent US20150025077A1.
